Data credit: the supplement of paper PMC7877785

Field: self-splicing fitness (ln). Provide a value for each of the sequences that follow.
experiment: self-splicing fitness, log relative to wild type (ln ratio); higher = more splicing; Tetrahymena group I intron in knt gene, E. coli kanamycin selection, DiMSum; sequences stand for … in CUCUCU…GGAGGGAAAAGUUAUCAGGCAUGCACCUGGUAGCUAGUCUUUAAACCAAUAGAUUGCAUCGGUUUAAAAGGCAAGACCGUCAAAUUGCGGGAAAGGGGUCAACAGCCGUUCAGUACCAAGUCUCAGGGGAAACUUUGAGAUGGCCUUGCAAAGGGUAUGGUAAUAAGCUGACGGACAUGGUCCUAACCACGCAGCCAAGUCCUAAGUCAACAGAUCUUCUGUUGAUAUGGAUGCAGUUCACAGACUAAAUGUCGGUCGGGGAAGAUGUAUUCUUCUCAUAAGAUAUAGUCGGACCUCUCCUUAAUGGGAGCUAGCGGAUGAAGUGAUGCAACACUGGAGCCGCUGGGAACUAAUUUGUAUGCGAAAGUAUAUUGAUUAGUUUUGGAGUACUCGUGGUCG; settings: 30 °C;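 also: selection with 25 µg/mL kanamycin versus none on LB agar overnight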
Numbers only.

Consider the reported self-splicing fitness (ln) for these sequences:
Sequence Code	self-splicing fitness (ln)
AUCAAGCAAUAUUACGUAUC	-4.11
CCAAAGCAAUAUUACGACCA	-3.08
GGCCAGCAAUAUUACGUCCG	-3.34
UACCAGCAAUAUUACGUACA	-0.719
CCGCAGCAAUAUUACGAAUU	-3.73

Hey, can you go through the list below and give me self-splicing fitness (ln) for every item?
1. UGGCAGCAAUAUUACGUUCA
2. UUGGAGCAAUAUUACGUUUA
3. ACGCAGCAAUAUUACGGUGA
4. GUGCAGCAAUAUUACGUUUA
5. GUAUAGCAAUAUUACGUAGG
6. ACUUAGCAAUAUUACGAUGU
7. ACGUAGCAAUAUUACGUGAA
8. CAACAGCAAUAUUACGCGAG

[-0.133, -2.44, -1.39, -0.737, -3.15, -1.78, -3.92, -2.29]
